- Measured Target: Human NMT1 (HsNMT1) (Homo sapiens, UniProt P30419)
- Sequence (P30419 whole entry, looked up): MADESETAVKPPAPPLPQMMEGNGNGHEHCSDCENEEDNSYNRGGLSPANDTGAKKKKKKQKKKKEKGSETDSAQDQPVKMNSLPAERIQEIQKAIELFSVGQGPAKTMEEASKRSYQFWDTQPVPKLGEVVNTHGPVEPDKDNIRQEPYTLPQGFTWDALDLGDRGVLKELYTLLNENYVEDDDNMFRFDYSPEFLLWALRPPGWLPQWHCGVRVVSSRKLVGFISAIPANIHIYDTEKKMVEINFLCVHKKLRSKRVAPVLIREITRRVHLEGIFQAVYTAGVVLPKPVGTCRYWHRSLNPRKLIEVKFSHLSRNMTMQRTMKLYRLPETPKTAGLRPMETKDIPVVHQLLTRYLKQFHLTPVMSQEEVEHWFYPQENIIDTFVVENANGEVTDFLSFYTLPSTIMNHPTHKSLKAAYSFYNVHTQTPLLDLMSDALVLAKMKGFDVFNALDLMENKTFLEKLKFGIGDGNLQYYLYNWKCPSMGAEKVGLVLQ
- Assay Summary: biochemical
hey, just use yes if measured IC50 is less than 0.04 µM, otherwise no

C[C@@H]1CN(C)CCN1c1ncc(Cl)c(N2CC(C(=O)N(C)C(C)(C)c3cnc4ccccn34)C2)n1 [Example 142] ... no
O=C(NCc1cnc2cc(F)ccn12)C1CN(c2nc(N3CCCNCC3)ncc2Cl)C1 [Example 21] ... no
O=C(NCc1cnc2ccccn12)C1CN(c2nc(N3CC4CNC4C3)ncc2F)C1 (centres unmarked) [Example 8] ... no

Now look at this entry.
Input line: Please check: IC50 for C[C@@H]1CNCCN1c1ncc(Cl)c(N2CC(C(=O)N(C)C(C)(C)c3cnc4ccccn34)C2)n1 [Example 138] , strictly under 0.04 µM or not?
Output line: yes
